Can you tell me melting point for the items I'm about to list?

Problem: State, in one line, measured melting point of Nc1nnc(-c2ccccc2Cl)[nH]1
Solution: 218 to 220 °C

Problem: Provide one value: measured melting point of Cc1ccc(I)cc1C(=O)O
Solution: 166 to 168 °C

Problem: Give a short answer stating reported melting point for CN(C)Cc1ccc(C(=O)NN)o1 .
Solution: 116 to 118 °C

Problem: Give melting point for COc1ccccc1-c1nnc(S)n1CCc1ccccc1
Solution: 87 to 89 °C

Problem: Name the recorded melting point of the item Nc1cccc(NC(=O)CN2CCCCCC2)c1 in your answer.
Solution: 67 to 69 °C

Problem: Using known records, supply melting point for Cc1cc(C)c2ncc(C(=O)O)c(O)c2c1
Solution: 282 to 284 °C

Problem: Quick one: give measured melting point for Cc1cn(-c2cccnc2)nc1N
Solution: 135 to 137 °C

Problem: Note down melting point recorded for CC(=O)Nc1cc(S(=O)(=O)Cl)ccc1F
Solution: 161 to 163 °C

Problem: Fill in melting point for record OC1CCc2c(F)cccc21 (configuration not stated)
Solution: 59 to 61 °C

Problem: Tell us which melting point value is on record for O=C(O)c1ccncc1N1CCCC1
Solution: 259 to 261 °C

Problem: For COC(=O)c1c(C)[nH]c(C(=O)CCl)c1C , write its melting point.
Solution: 166 to 168 °C

Problem: State its melting point for this molecule: O=C(O)c1cc(Cl)nc(N2CCOCC2)c1
Solution: 222 to 224 °C

Problem: Quote melting point reported for O=C(c1ccc(Cl)cc1)c1ccc2c(c1)OCO2 please.
Solution: 128 to 130 °C

Problem: # return recorded melting point for input CCCCc1ccc(N2CC(C(=O)O)CC2=O)cc1 (configuration not stated)
Solution: 139 to 141 °C

Problem: Retrieve melting point measured for Cc1ccc(C(=O)CC#N)s1 and print it.
Solution: 105 to 107 °C

Problem: Give recorded melting point. Cc1ccccc1-c1noc(=O)[nH]1
Solution: 155 to 157 °C

Problem: Output measured melting point for this item: Cc1noc2nc(-c3ccccc3Cl)cc(C(=O)O)c12
Solution: 248 to 250 °C

Problem: Tell me melting point reported for CNc1ccc(C#N)cc1F
Solution: 76 to 78 °C

Problem: Identify the reported melting point for the following entry. O=[N+]([O-])CC(c1ccco1)c1c(-c2ccccc2)[nH]c2ccccc12 (configuration not stated)
Solution: 127 to 129 °C

Problem: Dear colleague, please send me the reported melting point for NS(=O)(=O)c1ccc(C(=O)O)cn1 when you can.
Solution: 219 to 221 °C

Problem: Tell us which melting point value is on record for Cc1cc(S(=O)(=O)Cl)sc1Br
Solution: 35 to 37 °C

Problem: Hello, please tell me recorded melting point for this one: OCCN(Cc1ccccc1)Cc1ccccc1
Solution: 41 to 43 °C

Problem: Return the recorded melting point value; entry: CC1CN(Cc2csc(N)n2)CC(C)O1 (configuration not stated)
Solution: 132 to 134 °C

Problem: Answer with the recorded melting point for the molecule listed here: CS(=O)(=O)Cc1noc(CCl)n1
Solution: 73 to 75 °C

Problem: Indicate the recorded melting point value for this molecule: O=C(O)C1CCN(c2ccc(Cl)nn2)CC1
Solution: 186 to 188 °C

Problem: Specify reported melting point for the molecule shown: O=C(O)c1cc2c(F)ccc(F)c2[nH]1
Solution: 229 to 231 °C

Problem: Quick one: give measured melting point for Cc1cc(C)cc(N(CCC#N)C(=O)CCl)c1
Solution: 67 to 69 °C

Problem: Please list melting point recorded for the molecule CC1(C)C(=O)NS1(=O)=O
Solution: 137 to 139 °C

Problem: Could you please provide reported melting point for CCc1ccsc1C(N)=O ? Thanks!
Solution: 146 to 148 °C

Problem: Could you please provide reported melting point for Cc1cc(C=O)c(C)n1-c1ccc(Cl)c(C(F)(F)F)c1 ? Thanks!
Solution: 88 to 90 °C

Problem: For the molecule CNC(=O)C1CN(Cc2ccccc2)CCO1 (configuration not stated) , report melting point.
Solution: 113 to 115 °C

Problem: Please report melting point for the following molecule: COc1ccc(CC(=O)O)cc1S(=O)(=O)N1CCOCC1
Solution: 116 to 118 °C

Problem: Kindly indicate its recorded melting point. Item: CCc1cc(Cl)nc(-c2ccccn2)n1
Solution: 79 to 81 °C

Problem: For O=C1CCc2cc(OCCCl)ccc2N1 , write its melting point.
Solution: 150 to 152 °C

Problem: Please look at this molecule and report its melting point: COc1ccccc1C(=O)NCC(=O)O
Solution: 69 to 71 °C

Problem: Complete the entry with melting point for Cn1c(C(C)(C)C)nc2cc(N)ccc21
Solution: 164 to 166 °C

Problem: Query melting point for N#Cc1ccc(N2CCN(c3ccccc3)CC2)nc1
Solution: 131 to 133 °C

Problem: Return melting point (reported value) for this molecule: Nc1c(C(=O)O)ccc2cccnc12
Solution: 207 to 209 °C

Problem: Consider the molecule c1cnc2[nH]cc(C3CCNCC3)c2c1 and give its recorded melting point.
Solution: 159 to 161 °C

Problem: For Nc1nnc(C2COc3ccccc3O2)o1 (configuration not stated) , write its melting point.
Solution: 210 to 212 °C

Problem: Indicate the recorded melting point value for this molecule: Cn1cc(C(N)=O)cc1C(=O)O
Solution: 223 to 225 °C

Problem: State its melting point for this molecule: NCc1ccc(N2CCNC(=O)C2)cc1
Solution: 189 to 191 °C

Problem: Give recorded melting point. CC(C)COC(C)C(N)=NO (configuration not stated)
Solution: 63 to 65 °C

Problem: Provide measured melting point value, entry: CN(C)S(=O)(=O)c1cncc(C=CC(=O)O)c1
Solution: 242 to 244 °C

Problem: Provide one value: measured melting point of Nc1ccc(-c2nnco2)cc1
Solution: 155 to 157 °C

Problem: Give me measured melting point, please, for this molecule: CC(=O)c1cc(Br)c(F)cc1O
Solution: 77 to 79 °C

Problem: Please report melting point for the following molecule: CCOC(=O)c1c(N)oc(C)c1C(C)=O
Solution: 135 to 137 °C

Problem: Determine its reported melting point: Sc1nnc(-c2cccs2)[nH]1
Solution: 239 to 241 °C

Problem: Look up melting point of CNC(=O)Cn1nc(N)cc1C and report it.
Solution: 115 to 117 °C

Problem: Return reported melting point. Input molecule: O=C(O)CNC(=O)c1ccc(F)cc1F
Solution: 139 to 141 °C

Problem: Entry O=C(O)C1CCCN(C(=O)Cc2ccc(F)cc2)C1 (configuration not stated) needs its melting point filled in; supply it.
Solution: 122 to 124 °C

Problem: Report measured melting point; entry is O=S(=O)(c1ccc2oc(S)nc2c1)N1CCOCC1
Solution: 251 to 253 °C

Problem: For the molecule O=C1CSC(=S)N1c1ccc(F)cc1 , report melting point.
Solution: 137 to 139 °C

Problem: Identify melting point associated with the molecule Cc1nonc1C(=O)O
Solution: 69 to 71 °C

Problem: Query melting point for Nc1ccc2c(C(=O)O)c[nH]c2c1
Solution: 193 to 195 °C

Problem: Indicate its recorded melting point; the molecule in question is CNc1ccc(N)c(C(F)(F)F)c1
Solution: 86 to 88 °C

Problem: Look up and report measured melting point for this entry: CC(C)(C)OC(=O)NC1CCCCCC1C(=O)O (configuration not stated)
Solution: 123 to 125 °C
